Cited source: PubChem BioAssay AID624330

target: Rac GTPase-activating protein 1 (Homo sapiens) (UniProt Q9H0H5); test: blockers of MgcRacGAP-driven Rac1 GTP hydrolysis – biochemical, ADP Hunter fluorescence, primary and confirmatory, confirmation (AID 624330); details: MgcRacGAP-stimulated Rac1 GTP hydrolysis, at 30 µM, active compounds read high, GST-tagged Rac1 F28L mutant substrate;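 note: fluorescence reports GDP produced by GAP-driven GTP hydrolysis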
Sequence (Q9H0H5 whole entry, looked up): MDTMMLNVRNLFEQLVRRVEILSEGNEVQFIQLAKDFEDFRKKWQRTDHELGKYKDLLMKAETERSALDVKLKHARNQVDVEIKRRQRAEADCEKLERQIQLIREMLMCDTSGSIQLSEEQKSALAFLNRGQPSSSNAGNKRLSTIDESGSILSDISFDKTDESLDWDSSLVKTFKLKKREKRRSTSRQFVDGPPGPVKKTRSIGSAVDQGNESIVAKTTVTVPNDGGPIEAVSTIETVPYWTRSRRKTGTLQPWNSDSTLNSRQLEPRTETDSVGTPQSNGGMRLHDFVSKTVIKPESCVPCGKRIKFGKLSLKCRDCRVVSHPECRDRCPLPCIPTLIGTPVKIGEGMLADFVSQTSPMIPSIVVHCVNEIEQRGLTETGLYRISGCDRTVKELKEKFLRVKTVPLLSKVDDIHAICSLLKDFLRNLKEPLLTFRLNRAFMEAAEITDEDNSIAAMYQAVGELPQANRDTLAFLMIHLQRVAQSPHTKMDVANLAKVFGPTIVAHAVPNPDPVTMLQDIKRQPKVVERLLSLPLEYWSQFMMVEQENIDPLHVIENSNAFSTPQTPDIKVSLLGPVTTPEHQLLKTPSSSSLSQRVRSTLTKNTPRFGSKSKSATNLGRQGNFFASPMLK
In all, about 340,000 compounds went through this assay and about 2,100 (0.62%) were called active. These entries were drawn from the full list. Potency and affinity values are given separately.
reported_endpoint: inhibition (%)
Output spec: scalar in %, unitless text.

molecule | unit_spec | inhibition
Cc1ccsc1/C=N/NC(=O)c1cccnc1 | % | 6.67
Cc1nc(C(=O)N2CCCC(Nc3ccc(C)c(C)c3)C2)cs1 (stereo unspecified) | % | 13.6
CSc1nc(C(=O)N2CCCC(Nc3ccc(C)c(C)c3)C2)cs1 (stereo unspecified) | % | 13.4
COc1ccc(NC2CCCN(C(=O)c3ccc4[nH]c(C)c(C)c4c3)C2)cc1OC (stereo unspecified) | % | 12.8

Ask: # inhibition lookup, item COc1ccc(NC2CCCN(C(=O)CSc3ccncc3)C2)cc1 (stereo unspecified)
Result: 31.3

Ask: # inhibition lookup, item Cc1ccccc1/C=N/NC(=O)c1cccnc1
Result: 4.63

---

biological target: Rac GTPase-activating protein 1 (Homo sapiens) (UniProt Q9H0H5); assay: blockers of MgcRacGAP-driven Rac1 GTP hydrolysis – biochemical, ADP Hunter fluorescence, primary and confirmatory, confirmation (AID 624330); conditions: MgcRacGAP-stimulated Rac1 GTP hydrolysis, at 30 µM, active compounds read high, GST-tagged Rac1 F28L mutant substrate;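 note: fluorescence reports GDP produced by GAP-driven GTP hydrolysis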
Screen size: about 340,000 compounds; about 2,100 (0.62%) were called active. Only a sample is shown. Results with a measured potency or affinity are listed apart.
Listing of entries alongside the reported inhibition.

Here is how some compounds turned out for inhibition.
smiles_record | reported_endpoint | assay_result
CCOC(=O)NNC(=O)c1[nH]c2ccc(Br)cc2c1-c1ccccc1 | inhibition | 9.63% (inactive)
O=C(c1ccccn1)N1CCN(C(=O)c2ccccn2)CC1 | inhibition | 3.69% (inactive)
CCCN(CC(=O)Nc1ccc(F)c(F)c1F)C(=O)c1ccc2c(=O)n3c(nc2c1)CCC3 | inhibition | 1.86% (inactive)

Ask: # inhibition lookup, item OCCCNc1c2ccccc2nc2ccccc12
Result: 9.86% (inactive)

Ask: # inhibition lookup, item COc1c(N)c2c(c([N+](=O)[O-])c1OC)C(=O)OC2
Result: -0.66% (inactive)

Ask: # inhibition lookup, item COc1cc(OC)cc(C(=O)Nc2ncn[nH]2)c1
Result: 6.96% (inactive)

---

Listing of entries alongside the reported inhibition.
target: Rac GTPase-activating protein 1 (Homo sapiens) (UniProt Q9H0H5); assay: blockers of MgcRacGAP-driven Rac1 GTP hydrolysis – biochemical, ADP Hunter fluorescence, primary and confirmatory, confirmation (AID 624330); conditions: MgcRacGAP-stimulated Rac1 GTP hydrolysis, at 30 µM, active compounds read high, GST-tagged Rac1 F28L mutant substrate;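 note: fluorescence reports GDP produced by GAP-driven GTP hydrolysis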
Among all 340,000 compounds or so, about 2,100 (0.62%) were called active. A selection follows. Results with a measured potency or affinity are listed apart.

Here is how some compounds turned out for inhibition.
compound | inhibition
CC(C)(C)c1ccc(C2=NC(=O)C(CC(=O)O)S2)cc1 (configuration not stated) | 10.5% (inactive)
O=C(N/N=C/c1ccc(O)cc1O)c1ccncc1 | 31.7% (inactive)
CCc1ccc(N(CC(=O)NC(C)(C)C)C(=O)CNC(=O)c2cccs2)cc1 | 11.2% (inactive)
COc1cc(Cc2nccc3cc(OC)c(OC)cc23)c(NC(C)=O)cc1OC | 8.79% (inactive)
CCNC(=S)N(CCc1c(C)[nH]c2ccccc12)Cc1cc(OC)c(OC)c(OC)c1 | 13.9% (inactive)
COc1ccc(N2C(=O)CC(N3CCN(c4ccc(S(C)(=O)=O)cc4)CC3)C2=O)cc1 (configuration not stated) | -1.2% (inactive)
COc1cccc(/C=N/NC(=O)CNC(=O)c2cccs2)c1O | 9.63% (inactive)
COC(=O)C1=C(C(=O)c2ccccc2)C(c2cccs2)n2nnnc2N1 (configuration not stated) | 12.1% (inactive)

Ask: # inhibition lookup, item CC(NC(=O)C1CC(=O)N(c2ccc3c(c2)OCCO3)C1)c1ccccc1 (configuration not stated)
Result: 10.6% (inactive)

Ask: # inhibition lookup, item COCC(=O)Nc1ccc(F)cc1
Result: -1.69% (inactive)

Ask: # inhibition lookup, item O=C(Nc1ccc(Cl)cc1)Nc1nnc(CSCc2ccccc2Cl)s1
Result: 12.1% (inactive)

Ask: # inhibition lookup, item CC(=O)N1c2ccc(S(=O)(=O)NCCC(=O)NC3CCC(C)CC3)cc2CC1C (configuration not stated)
Result: 6.14% (inactive)

Ask: # inhibition lookup, item O=C(COc1ccc(Cl)cc1)OCC(=O)N1CCCC1
Result: 8.63% (inactive)

Ask: # inhibition lookup, item CN(CC(=O)Nc1cccc(S(=O)(=O)N2CCOCC2)c1)CC(=O)Nc1ccc(Cl)c(C(F)(F)F)c1
Result: 6.95% (inactive)

Ask: # inhibition lookup, item CCOC(=O)N1CCN(C(=O)CC(C(=O)N2CCc3ccccc32)n2ccnc2)CC1 (configuration not stated)
Result: 4.9% (inactive)

Ask: # inhibition lookup, item COCCNC(=O)COc1cccc(Oc2ccccc2)c1
Result: 12.7% (inactive)

Ask: # inhibition lookup, item O=C(O)c1ccc(N2CCCCC2)cc1O
Result: 10.7% (inactive)

Ask: # inhibition lookup, item CCCCNC(=O)CNC(=S)N(Cc1cc(OC)c(OC)c(OC)c1)C1CCCC1
Result: 5.07% (inactive)

Ask: # inhibition lookup, item O=C(COc1ccc(Cl)cc1)OCC(=O)N1CCCCCC1
Result: 11.4% (inactive)

Ask: # inhibition lookup, item CC(=O)Nc1ccc(NC(=O)CCc2ccc(C)o2)cc1
Result: 10.6% (inactive)

Ask: # inhibition lookup, item CC(=O)Nc1ccc(N=Nc2ccccc2)cc1
Result: 0.87% (inactive)

---

Listing of entries alongside the reported inhibition.
target: Rac GTPase-activating protein 1 (Homo sapiens); assay: blockers of MgcRacGAP-driven Rac1 GTP hydrolysis – biochemical, ADP Hunter fluorescence, primary and confirmatory, confirmation (AID 624330); details: MgcRacGAP-stimulated Rac1 GTP hydrolysis, at 30 µM, active compounds read high, GST-tagged Rac1 F28L mutant substrate;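 note: fluorescence reports GDP produced by GAP-driven GTP hydrolysis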
Among all 340,000 compounds or so, about 2,100 (0.62%) were called active. Only a sample is shown. Entries with a potency or affinity are not part of this list.
Output spec: scalar in %, unitless text.

Here is how some compounds turned out for inhibition.
compound | inhibition (%)
O=C1OC(COc2ccc(Br)cc2)CN1c1ccccc1 (stereo unspecified) | 0.77
Cc1ccccc1NC(=O)/C(C#N)=C\c1cccnc1 | 16.7
COc1cc(OC)c(C(=O)NCCCn2ccnc2)cc1OC | 3.26
Cc1ccccc1OCC(=O)N/N=C/c1cn(Cc2ccccc2)c2ccccc12 | 3.64
Cc1noc(C)c1COc1ccc(C(=O)N2CCN(c3ccccc3O)CC2)cc1 | -2.07
CCOC(=O)c1c(/N=C/c2ccc(OC)cc2O)sc2c1CCN(C)C2 | 17
Cc1ccc(S(=O)(=O)N2CCOCC2)cc1C(=O)OCC(=O)NC1CCCC1 | 3.52
N#CC1(NC(=O)CN2CCc3ccccc3C2)CCCC1 | -8.1

Ask: Which inhibition is reported with Rac GTPase-activating protein 1 (Homo sapiens) for this entry: CCOC(=O)C1(Cc2ccccc2C)CCCN(C(=O)c2ccc3nccnc3c2)C1 (stereo unspecified) ?
Result: 7.5

Ask: Which inhibition is reported with Rac GTPase-activating protein 1 (Homo sapiens) for this entry: COc1cccc(NC(=O)C(=O)NCC2CCCN2S(=O)(=O)c2ccccc2)c1 (stereo unspecified) ?
Result: 3.83

Ask: Which inhibition is reported with Rac GTPase-activating protein 1 (Homo sapiens) for this entry: CCOC(=O)c1cc(CC)sc1/N=C/c1c(O)ccc2ccccc12 ?
Result: 8.65

---

target: Rac GTPase-activating protein 1 (Homo sapiens) (UniProt Q9H0H5); test: blockers of MgcRacGAP-driven Rac1 GTP hydrolysis – biochemical, ADP Hunter fluorescence, primary and confirmatory, confirmation (AID 624330); details: MgcRacGAP-stimulated Rac1 GTP hydrolysis, at 30 µM, active compounds read high, GST-tagged Rac1 F28L mutant substrate;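 note: fluorescence reports GDP produced by GAP-driven GTP hydrolysis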
The campaign covered roughly 340,000 compounds. About 2,100 (0.62%) were called active. Not all results are given here. Entries with a potency or affinity are not part of this list.
reported_endpoint: inhibition (%)
Output spec: scalar in %, unitless text.

compound | reported_endpoint | unit_spec | assay_result
COC(=O)C1CCN(S(=O)(=O)Cc2ccccc2Cl)CC1 | inhibition | % | 7.49
COC(c1ccccc1)c1nnc(CCC(=O)NCc2ccc3ncccc3c2)o1 (centres undefined) | inhibition | % | 9.84
O=C1CN(C(=O)COC(=O)Cc2ccccc2F)c2ccccc2N1 | inhibition | % | 3.02
C/C(=N\NC(=O)C(O)c1ccccc1)c1cccnc1 (centres undefined) | inhibition | % | 2.12
CC(C)(C)OC(=O)NCC(=O)NCC(=O)OCc1ccccc1 | inhibition | % | 4.89
CC1=C(C(=O)NC2CC(C)(C)Cc3c2cnn3-c2cccc(F)c2)OCCO1 (centres undefined) | inhibition | % | -2.86
C=CCN(Cc1ccc(Cl)s1)C(=O)c1cc(S(=O)(=O)N2CCOCC2)ccc1F | inhibition | % | 1.3
Cc1oc(-c2cccc(F)c2)nc1CN1CCCN(C(=O)c2ccco2)CC1 | inhibition | % | 9.79
Cc1cccc(NC(=O)c2nc(-c3ccccc3)n(-c3ccccc3)n2)c1C | inhibition | % | 10.4
CCC(C)c1ccccc1NC(=O)C(C)OC(=O)c1ccco1 (centres undefined) | inhibition | % | 1.05

Ask: # inhibition lookup, item OCCNCCO
Result: -1.48

Ask: # inhibition lookup, item CCCCCCC(=O)OCC(=O)c1ccc2c(c1)NC(=O)CO2
Result: 4

Ask: # inhibition lookup, item O=C(c1cccs1)N1CCN(c2ncc(C(F)(F)F)cc2Cl)CC1
Result: 8.94

Ask: # inhibition lookup, item COc1cc(C(F)(F)F)c(C(=O)N(C)Cc2ccc(Cl)c(Cl)c2)cn1
Result: 5.07

Ask: # inhibition lookup, item O=C1/C(=C/c2ccc(O)cc2)SC(=S)N1CC1CCCO1 (centres undefined)
Result: 31.1

Ask: # inhibition lookup, item O=C1c2ccccc2C(=O)c2c(NCc3cccnc3)cccc21
Result: 1.26

Ask: # inhibition lookup, item O=C(NC(=S)N1CCN(c2ccccc2)CC1)c1ccco1
Result: 5.3

Ask: # inhibition lookup, item CC(c1ccc2ccccc2c1)c1ccccc1C(=O)O (centres undefined)
Result: 5.25
